- assay-comment: Cmax in Han-Wistar rat at 2 mg/kg, po by LC-MS/MS method
- Type: ADME, organism-based
- Parameters: dose 2 mg/kg, route oral
- condition-details: in vivo
readout-kind: Cmax (nM)

[
  {
    "smiles-str": "CN1CCN(CCCS(=O)(=O)c2ccc3nc(NC(=O)NC(=O)c4cc(-n5cccn5)ccc4Cl)sc3c2)CC1",
    "readout-kind": "Cmax",
    "reading": 1200
  },
  {
    "smiles-str": "Cc1ccn(-c2ccc(Cl)c(C(=O)NC(=O)Nc3nc4ccc(S(=O)(=O)CCCN5CCN(C)CC5)cc4s3)c2)n1",
    "readout-kind": "Cmax",
    "reading": 410
  },
  {
    "smiles-str": "CN1CCN(CCCS(=O)(=O)c2ccc3nc(NC(=O)NC(=O)c4cc(-n5cccn5)c(Cl)cc4Cl)sc3c2)CC1",
    "readout-kind": "Cmax",
    "reading": 30
  },
  {
    "smiles-str": "CCOc1ccc(Cl)c(C(=O)NC(=O)Nc2nc3ccc(S(=O)(=O)CCCN4CCN(C)CC4)cc3s2)c1",
    "readout-kind": "Cmax",
    "reading": 4200
  },
  {
    "smiles-str": "CN1CCN(CCCS(=O)(=O)c2ccc3nc(NC(=O)NC(=O)c4cc(-n5cccc5)ccc4Cl)sc3c2)CC1",
    "readout-kind": "Cmax",
    "reading": 580
  },
  {
    "smiles-str": "CN1CCN(CCCS(=O)(=O)c2ccc3nc(NC(=O)NC(=O)c4cccc(-n5cccn5)c4Cl)sc3c2)CC1",
    "readout-kind": "Cmax",
    "reading": 12
  },
  {
    "smiles-str": "CCc1ccc(Cl)c(C(=O)NC(=O)Nc2nc3ccc(S(=O)(=O)CCCN4CCN(C)CC4)cc3s2)c1",
    "readout-kind": "Cmax",
    "reading": 1500
  },
  {
    "smiles-str": "CN1CCN(CCCS(=O)(=O)c2ccc3nc(NC(=O)NC(=O)c4cc(C5CC5)ccc4Cl)sc3c2)CC1",
    "readout-kind": "Cmax",
    "reading": 1400
  },
  {
    "smiles-str": "CCN(CC)CCCS(=O)(=O)c1ccc2nc(NC(=O)NC(=O)c3cc(-n4cccc4)ccc3Cl)sc2c1",
    "readout-kind": "Cmax",
    "reading": 3600
  },
  {
    "smiles-str": "CN1CCN(CCCS(=O)(=O)c2ccc3nc(NC(=O)NC(=O)c4cc(-c5ccccn5)ccc4Cl)sc3c2)CC1",
    "readout-kind": "Cmax",
    "reading": 1000
  },
  {
    "smiles-str": "Cc1cc(C)n(-c2ccc(Cl)c(C(=O)NC(=O)Nc3nc4ccc(S(=O)(=O)CCCN5CCN(C)CC5)cc4s3)c2)n1",
    "readout-kind": "Cmax",
    "reading": 78
  },
  {
    "smiles-str": "CN1CCN(CCCS(=O)(=O)c2ccc3nc(NC(=O)NC(=O)c4cc(N5CCCC5)ccc4Cl)sc3c2)CC1",
    "readout-kind": "Cmax",
    "reading": 640
  },
  {
    "smiles-str": "CCN(CC)CCCS(=O)(=O)c1ccc2nc(NC(=O)NC(=O)c3cc(-n4cccn4)ccc3Cl)sc2c1",
    "readout-kind": "Cmax",
    "reading": 1600
  },
  {
    "smiles-str": "CN1CCN(CCCS(=O)(=O)c2ccc3nc(NC(=O)NC(=O)c4cc5c(ccn5C)cc4Cl)sc3c2)CC1",
    "readout-kind": "Cmax",
    "reading": 300
  },
  {
    "smiles-str": "Cc1ccn(-c2ccc(C(=O)NC(=O)Nc3nc4ccc(S(=O)(=O)CCCN5CCN(C)CC5)cc4s3)c(Cl)c2)n1",
    "readout-kind": "Cmax",
    "reading": 220
  },
  {
    "smiles-str": "CCN(CC)CCCS(=O)(=O)c1ccc2nc(NC(=O)NC(=O)c3cc(N4CCOCC4)ccc3Cl)sc2c1",
    "readout-kind": "Cmax",
    "reading": 9400
  },
  {
    "smiles-str": "CN1CCN(CCCS(=O)(=O)c2ccc3nc(NC(=O)NC(=O)c4cc(N5CCOCC5)ccc4Cl)sc3c2)CC1",
    "readout-kind": "Cmax",
    "reading": 1200
  },
  {
    "smiles-str": "C#Cc1ccc(Cl)c(C(=O)NC(=O)Nc2nc3ccc(S(=O)(=O)CCCN4CCN(C)CC4)cc3s2)c1",
    "readout-kind": "Cmax",
    "reading": 1400
  }
]
